tested on: esterase enzyme; experiment: Effect of metals on enzyme activity; format: biochemical, microflora of Ac1göl (Aci Lake); conditions: the enzyme of the invention in presence of metal ion
EXPERIMENTAL ENDPOINT: Metal tolerance, This study
// no unit, no text: just the number

As a guide, the following entries are already answered.
- SMILES STR: "[Zn+2]"
  READOUT VALUE: 6
- SMILES STR: "[Ag+]"
  READOUT VALUE: 32
- SMILES STR: "[Ca+2]"
  READOUT VALUE: 130

For this compound ( "[Al+3]" ), measured Metal tolerance, This study is 91

For this compound ( "[Mg+2]" ), measured Metal tolerance, This study is 130
